Test system: human peripheral blood monocytes
Assay: Activation of monocytes in vitro measured by production of Interleukin-1-beta (ELISA)
Type: cell-based
Settings: Table 8, Experiment 1, 0.1 μg/ml, 24 Hours
Method: Human peripheral blood monocytes were isolated by density gradient centrifugation as noted in Example 13. The cell number was adjusted to 5×10^5 cells per ml in RPM 1640 media containing 5% human AB negative serum. One ml containing 5×10^5 cells were placed in individual wells of 24-well Plastek tissue culture plate. Various drugs in a volume of 0.5 ml were added at time zero. […]
Threshold 70 pg/mL. IL-1-beta (pg/ml) at given Concentration of Compound below it: 1.0. IL-1-beta (pg/ml) at given Concentration of Compound at it or above: 0.0.

{"Molecule": "CCCCCCCCCCCCCCCC(=O)OCC(COC(=O)CCCCCCCCCCCCCCC)NC(=O)C(C)NC(=O)CCC(NC(=O)C(NC(=O)C(C)OC1C(NC(C)=O)C(O)OC(CO)C1OC1OC(CO)C(O)C(O)C1NC(C)=O)C(C)O)C(N)=O (centres unmarked)", "Cat": 1.0}
{"Molecule": "CCCCCCCCCCCCCCCC(=O)OCC(COC(=O)C(C)NC(=O)CCC(NC(=O)C(C)NC(=O)C(C)OC1C(NC(C)=O)C(O)OC(CO)C1OC1OC(CO)C(O)C(O)C1NC(C)=O)C(N)=O)OC(=O)CCCCCCCCCCCCCCC (centres unmarked)", "Cat": 0.0}
{"Molecule": "CCCCCCCCCCCCCCCC(=O)OCC(COC(=O)C(C)NC(=O)CCC(NC(=O)C(NC(=O)C(C)OC1C(NC(C)=O)C(O)OC(CO)C1OC1OC(CO)C(O)C(O)C1NC(C)=O)C(C)O)C(N)=O)OC(=O)CCCCCCCCCCCCCCC (centres unmarked)", "Cat": 1.0}

Kindly review the next molecule as well.
Regarding CCCCCCCCCCCCCCCC(=O)OCC(COC(=O)C(C)NC(=O)CCC(NC(=O)C(NC(=O)C(C)OC1C(NC(C)=O)C(O)OC(CO)C1OC1OC(CO)C(O)C(O)C1NC(C)=O)C(C)C)C(N)=O)OC(=O)CCCCCCCCCCCCCCC (centres unmarked) , kindly confirm whether its IL-1-beta (pg/ml) at given Concentration of Compound is beneath 70 pg/mL.
0.0

###

Quick reference for TNF Level among some molecules
tested on: human peripheral blood monocytes; assay: Activation of monocytes in vitro measured by production of tumor necrosis factor (ELISA); assay type: cell-based; conditions: Experiment 3, free drug in saline 1.0 μg/ml, 24 hours
All answers are understood in pg/mL, so give the number only.

Worked cases, answers included:
{"Molecule": "CCCCCCCCCCCCCCCC(=O)OCC(COC(=O)CCCCCCCCCCCCCCC)NC(=O)C(C)NC(=O)CCC(NC(=O)C(C)NC(=O)C(C)OC1C(NC(C)=O)C(O)OC(CO)C1OC1OC(CO)C(O)C(O)C1NC(C)=O)C(N)=O [Compound IC, GlcNAcMurNAc-D-Ala-D-isoGln-D-Ala-NHDPG]", "TNF Level / pg/mL": 300}
{"Molecule": "CCCCCCCCCCCCCCCC(=O)OCC(COC(=O)CCCCCCCCCCCCCCC)NC(=O)C(C)NC(=O)CCC(NC(=O)C(C)NC(=O)C(C)OC1C(NC(C)=O)C(O)OC(CO)C1OC1OC(CO)C(O)C(O)C1NC(C)=O)C(N)=O [Compound IB, GlcNAcMurNAc-L-Ala-D-isoGln-D-Ala-NHDPG]", "TNF Level / pg/mL": 350}
{"Molecule": "CCCCCCCCCCCCCCCC(=O)OCC(COC(=O)CCCCCCCCCCCCCCC)NC(=O)C(C)NC(=O)CCC(NC(=O)C(C)NC(=O)C(C)OC1C(NC(C)=O)C(O)OC(CO)C1OC1OC(CO)C(O)C(O)C1NC(C)=O)C(N)=O (centres unmarked) [Compound IA]", "TNF Level / pg/mL": 1000}
{"Molecule": "CCCCCCCCCCCCCCCC(=O)OCC(COC(=O)C(C)NC(=O)CCC(NC(=O)C(C)NC(=O)C(C)OC1C(NC(C)=O)C(O)OC(CO)C1OC1OC(CO)C(O)C(O)C1NC(C)=O)C(N)=O)OC(=O)CCCCCCCCCCCCCCC (centres unmarked) [Compound IIB]", "TNF Level / pg/mL": 500}

Lab note: next molecule to report on.
What value of measured TNF Level is listed for CCCCCCCCCCCCCCCC(=O)OCC(COC(=O)C(C)NC(=O)CCC(NC(=O)C(C)NC(=O)C(C)OC1C(NC(C)=O)C(O)OC(CO)C1OC1OC(CO)C(O)C(O)C1NC(C)=O)C(N)=O)OC(=O)CCCCCCCCCCCCCCC (centres unmarked) [Compound IIA] ?
1650
